- ASSAYED_SYSTEM: T1, hK1 (human tissue kallikrein 1), recombinant (human, UniProt P06870 25-262)
- T1 construct: Expressed in P. pastoris from KLK1 cDNA and purified; enzymatically active; also called KLK1; Recombinant (Pichia) Kallikrein
- PROTOCOL_SUMMARY: SPR, biotinylated hK1 on streptavidin chip; Fab 50 nM after DX-2300 50 nM (competitor DX-2300)
Some binders, each annotated with its measured Fab Signal following DX-2300 (R1).
Would you mind answering with just the numeric figure?

>  <BINDER>
M0139-A09 (Fab, V domains shown) VH: EVQLLESGGGLVQPGGSLRLSCAASGFTFSWYFMVWVRQAPGKGLEWVSGIGPSGGLTTYADSVKGRFTISRDNSKNTLYLQMNSLRAEDTAVYYCARSDWLNYWGQGTLVTVSS VL: DIVMTQTPPSLPVNPGEPASISCRSSQSLVYSDGNTYLNWFQQRPGQSPRRLIYKVSNRDSGVPDRFSGSGSGTDFTLKISRVEAEDVGVYYCMQGTHWQRLTFGGGTKVEIKR

>  <RECORDED_METRIC>
Fab Signal following DX-2300 (R1)

>  <MEASURED_NUMBER>
25.7

$$$$
>  <BINDER>
M0134-D07 (Fab, V domains shown) VH: EVQLLESGGGLVQPGGSLRLSCAASGFTFSRYFMIWVRQAPGKGLEWVSSIVPSGGPTRYADSVKGRFTISRDNSKNTLYLQMNSLRAEDTAVYYCARRGPVYYYDSSGSHSAFDIWGQGTMVTVSS VL: DIQMTQSPSSLSASVGDRVTITCRASQGIRNDLGWYQQKPGKAPKLLIYAASSLQSGVPSRFSGSGSGTDFTLTISSLQPEDFATYYCLQDYNYPRTFGQGTKVEIKR

>  <RECORDED_METRIC>
Fab Signal following DX-2300 (R1)

>  <MEASURED_NUMBER>
2.3

$$$$
>  <BINDER>
M0114-G06 (Fab, V domains shown) VH: EVQLLESGGGLVQPGGSLRLSCAASGFTFSYYEMEWVRQAPGKGLEWVSSIRPSGGRTVYADSVKGRFTISRDNSKNTLYLQMNSLRAEDTAVYYCAKGRSNYYGSGSYSPKYFQHWGQGTLVTVSS VL: DIQMTQSPSSLSASVGDRVTITCRASQGISSWLAWYQQRPERAPKSLIYAASSLERGVPSRFRGSGSGTDFTLTISSLQPEDFGTYYCQQYHNFPLTFGGGTRVEINR

>  <RECORDED_METRIC>
Fab Signal following DX-2300 (R1)

>  <MEASURED_NUMBER>
4.8

$$$$
>  <BINDER>
M0137-E01 (Fab, V domains shown, also called M137-E01) VH: EVQLLESGGGLVQPGGSLRLSCAASGFTFSRYSMTWVRQAPGKGLEWVSSIYPSGGKTTYADSVKGRFTISRDNSKNTLYLQMNSLRAEDTAVYYCASMVAPYYYDSSGYPPAEYFQHWGQGTLVTVSS VL: AQSELTQPPSASGTPGQRVTISCSGTNSNIGSNSVFWYQQLSGTAAPKVLILRNSQRPSGVSDRFSGSKSGTSASLAISGLRSEDEADYYCATWDDSLRSPVFGGGTKLTVLG

>  <RECORDED_METRIC>
Fab Signal following DX-2300 (R1)

>  <MEASURED_NUMBER>
20.8

$$$$
>  <BINDER>
M0117-F04 (Fab, V domains shown) VH: EVQLLESGGGLVQPGGSLRLSCAASGFTFSMYVMNWVRQAPGKGLEWVSRIGSSGGGTLYADSVKGRFTISRDNSKNTLYLQMNSLRAEDTAVYYCARVSVYRIRNYYYYAMDVWGQGTTVTVSS VL: DIQMTQSPSSLSASVGDRVTITCRASQGIGNYLAWYQQKPGKAPNLLIYKTSNLQSGVPSRFRGSGSGTEFTLTITSVQPDDFATYFCQRYDSYSQYIFGQGTKLETKR

>  <RECORDED_METRIC>
Fab Signal following DX-2300 (R1)

>  <MEASURED_NUMBER>
6.7

$$$$

Ask: Consider the binder shown here: M0093-F09 (Fab, V domains shown, also called M093-F09) VH: EVQLLESGGGLVQPGGSLRLSCAASGFTFSDYRMWWVRQAPGKGLEWVSYIVPSGGQTSYADSVKGRFTISRDNSKNTLYLQMNSLRAEDTAVYYCARGSAYQRRTYSSGWYSASGRRGTAEYFQHWGQGTLVTVSS VL: AQSALTQPASVSGSPGQSITISCTGTSTDDVGGYNYVSWYQQHPGKAPKLMIYDVINRPSGVSNRFSGSKSGNTASLTISGLQAEDEADYYCSSYTSRGTRVFGTGTKVTVLG What is its recorded Fab Signal following DX-2300 (R1)?
Result: 5.9
